So I've got a bunch of molecules here, and I need their Ki values.
targetSystem: L-iLDH (NAD-independent L-lactate dehydrogenase) from P. stutzeri SDM (Stutzerimonas stutzeri)
Construct: full-length lldD in pETDuet-1 (HindIII/XhoI), expressed in E. coli C43(DE3), HisTrap purified (tag not described); also purified natively from membrane with Triton X-100; one FMN per subunit
Sequence (I1SLB1 1-391): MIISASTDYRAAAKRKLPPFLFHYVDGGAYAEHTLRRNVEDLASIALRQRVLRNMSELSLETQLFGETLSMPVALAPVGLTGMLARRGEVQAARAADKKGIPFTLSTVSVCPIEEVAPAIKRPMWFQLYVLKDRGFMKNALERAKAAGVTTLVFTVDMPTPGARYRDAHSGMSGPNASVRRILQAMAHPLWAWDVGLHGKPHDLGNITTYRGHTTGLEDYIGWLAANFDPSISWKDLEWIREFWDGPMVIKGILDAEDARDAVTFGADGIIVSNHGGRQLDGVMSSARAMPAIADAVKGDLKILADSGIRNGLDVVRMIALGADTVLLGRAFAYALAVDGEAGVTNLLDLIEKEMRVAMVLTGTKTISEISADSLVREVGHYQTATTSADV
measurementProtocol: MTT reduction at […] nm, double-reciprocal plots
Numbers only, in mM.

// each listed molecule needs a value for Ki
1. O=C(O)C(=O)O [oxalate]
2. NC(=O)C(=O)O [oxamate]

Ans:
[1.9, 29]
